Origin of values: ChEMBL document CHEMBL1933057

targetSystem: Prostaglandin E synthase (Homo sapiens)
Sequence (whole entry): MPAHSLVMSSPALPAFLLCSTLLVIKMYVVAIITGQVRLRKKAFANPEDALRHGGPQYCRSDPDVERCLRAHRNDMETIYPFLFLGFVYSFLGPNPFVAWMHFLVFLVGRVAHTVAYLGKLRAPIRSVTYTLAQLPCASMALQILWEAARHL
experimentalDetails: Inhibition of mPGES-1 in human A549 cell microsomes assessed as conversion of PGH2 into PGE2 at 3.3 uM at 0 degC after 5 mins by HPLC-UV analysis
protocolConditions: Microsome
The source made the active and inactive calls. The rule behind the calls is not given here.
readoutKind: inhibition

CCCCCCCCCCCCCC(=O)c1c(C)c(CCC(=O)O)n(C)c1C : 63%
CCCCCCCCOc1ccccc1C(=O)c1c(C)c(CCC(=O)O)n(C)c1C : 23%
CCCCCCCC(=O)c1c(C)c(CCC(=O)O)n(C)c1C : 55%
Cc1c(C(=O)CCc2ccccc2)c(C)n(C)c1CCC(=O)O : inactive

Attention now turns to another entry.
### Prompt // inhibition lookup, key: CCCC(=O)c1c(C)c(CCC(=O)O)n(C)c1C
### Response inactive

----------
targetSystem: Prostaglandin E synthase (Homo sapiens, UniProt O14684)
experimentalDetails: Inhibition of mPGES-1
Here the recorded pIC50 is given for each entry.
# pIC50 = -log10(concentration in molar units)

CS(=O)(=O)Nc1ccc([N+](=O)[O-])cc1OC1CCCCC1 : 5.00

Attention now turns to another entry.
### Prompt // pIC50 lookup, key: CCCCCCCCCCCC(=O)c1c(C)c(CCC(=O)O)n(C)c1C
### Response 6.10

----------
targetSystem: Prostaglandin E synthase (Homo sapiens, UniProt O14684)
experimentalDetails: Inhibition of mPGES-1 in human A549 cell microsomes assessed as conversion of PGH2 into PGE2 at 0 degC after 5 mins by HPLC-UV analysis
Design: species or system Microsome
readoutKind: pIC50
# pIC50 = -log10(concentration in molar units)

### Prompt // pIC50 lookup, key: CCCCCCCCCCCC(=O)c1c(C)c(CCC(=O)O)n(C)c1C
### Response 6.10

----------
targetSystem: UniProtKB O14684
experimentalDetails: Inhibition of human recombinant mPGES-1 in assessed as conversion of PGH2 into PGE2 at 20 degC after 5 mins by HPLC-UV analysis
readoutKind: IC50 (nM)
Give your result in nM as a bare value.

// below: answered compounds
CCCCCCCCCCCC(=O)c1c(C)c(CCC(=O)NS(C)(=O)=O)n(C)c1C : 600
CCCCCCCCCCCC(=O)c1c(C)c(CCC(=O)O)n(C)c1C : 670

Attention now turns to another entry.
### Prompt // IC50 lookup, key: CCCCCCCCCCCC(=O)c1c(-c2ccccc2)c(CCC(=O)O)n(C)c1C
### Response 140

----------
targetSystem: Prostaglandin E synthase (Homo sapiens) (UniProt O14684)
experimentalDetails: Inhibition of human recombinant mPGES-1 in assessed as conversion of PGH2 into PGE2 at 10 uM at 20 degC after 5 mins by HPLC-UV analysis in presence of 0.1% Triton X-100
Calls of active or inactive are those of the source. The calls are words filed in the database; no cut-off is given here.
readoutKind: inhibition

CCCCCCC(Sc1nc(Cl)cc(NCc2ccc(-c3ccccc3)cc2)n1)C(=O)O (stereo not given) : inactive
CC(C)c1ccc2c(c1)c(SC(C)(C)C)c(CC(C)(C)C(=O)O)n2Cc1ccc(Cl)cc1 : 75%
CCCCCCCCCCCC(=O)c1c(-c2ccccc2)c(CCC(=O)O)n(C)c1C : inactive
CCCCCCCCCCCC(=O)c1c(C)c(CCC(=O)O)n(C)c1C : inactive

Attention now turns to another entry.
### Prompt // inhibition lookup, key: CCCCCCCCCCCC(=O)c1c(C)c(CCC(=O)NS(C)(=O)=O)n(C)c1C
### Response inactive
